Source: patent US20100286035A1

Property: pIC50; scope: individual binders
measured-target: T1, human FM3 (NMUR1) (human)
T1 chain: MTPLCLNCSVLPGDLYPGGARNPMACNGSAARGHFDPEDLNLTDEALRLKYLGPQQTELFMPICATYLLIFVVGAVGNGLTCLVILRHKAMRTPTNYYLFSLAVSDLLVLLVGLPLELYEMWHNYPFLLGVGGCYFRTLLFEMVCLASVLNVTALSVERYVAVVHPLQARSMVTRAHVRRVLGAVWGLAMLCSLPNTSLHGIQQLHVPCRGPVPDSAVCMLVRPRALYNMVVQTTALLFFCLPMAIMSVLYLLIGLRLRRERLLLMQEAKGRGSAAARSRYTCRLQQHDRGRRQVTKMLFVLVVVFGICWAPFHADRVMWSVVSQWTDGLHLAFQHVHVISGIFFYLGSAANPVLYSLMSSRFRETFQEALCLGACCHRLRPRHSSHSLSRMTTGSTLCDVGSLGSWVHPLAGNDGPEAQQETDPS
procedure-details: competition with 125I-NMU8, human FM3/CHO membrane fraction, filter binding
Procedure: The protein concentrations in the FM3 and TGR1 membrane fractions were 12 and 22 μg/ml, respectively. Namely, dilution strings of NMU derivatives and PEG conjugates were provided and diluted membrane fraction solutions (200 μl) were added. The mixture was thoroughly blended with a Vortex and the labeled ligand 2 μl (final concentration […]) was added to carry out the reaction at 25° C. for 60 min. […]
pIC50: −log10 of the molar value. Primed or numbered codes have the meaning given here. Where no end group is shown, it is not given here. AU″ = omega-aminocarboxylic acid linker (structure only drawn); AD = not defined here; AP = not defined here
endpoint: pIC50

[
  {
    "binder": "{PEG 30 kDa-AD}-YFLFRPRN-NH2 (reading uncertain; also: PEG-aldehyde bound by reductive amination (NH linkage), printed as PEG30k(NH-AD)-NMU-8) [PEG30k(NH-AD)-NMU-8]",
    "quantitative-result": 8.15
  },
  {
    "binder": "{PEG 30 kDa-AP}-YFLFRPRN-NH2 (reading uncertain; also: printed as PEG30k(NH-AP)-NMU-8) [PEG30k(NH-AP)-NMU-8]",
    "quantitative-result": 8.20
  },
  {
    "binder": "{PEG 30 kDa-AU″}-YFLFRPRN-NH2 [PEG30k(AU)-NMU-8]",
    "quantitative-result": 7.22
  },
  {
    "binder": "C(PEG 30 kDa)FFLFRPRN-NH2 [PEG30k-Cys-NMU-8]",
    "quantitative-result": 8.64
  },
  {
    "binder": "{PEG 30 kDa-AD}-YFLFRPRN-NH2 (reading uncertain; also: printed as PEG30k(AD)-NMU-8) [PEG30k(AD)-NMU-8]",
    "quantitative-result": 6.89
  }
]
